Experiment: In vivo pharmacokinetics in plasma, brain and lung after IV, IN and IN + BorNLC co-administration
Design: species or system CD-1 mice
Conditions: CD-1, mouse, brain/plasma, iv, 2.38 mg/kg, paroxetine; IV free drug; 2.38 mg/kg; read-out: AUCtbrain/AUCtplasma
Counter-ions that a name gives are not always drawn.
Measure Name: Kp
Lab note: jot the number down without any unit.

Prompt: State the recorded Kp for this entry: Fc1ccc([C@@H]2CCNC[C@H]2COc2ccc3c(c2)OCO3)cc1 [Paroxetine, Paroxetine hydrochloride]
Completion: 0.35

---

Test: Solubility of escitalopram and paroxetine in liquid lipids
Assay type: physicochemical
Settings: Lauroglycol 90 (liquid lipid), oil or lipid, thermodynamic from solid; in Lauroglycol 90; 24 h stirring at 25°C; n = 3, mean ± SD
Method: Briefly, 0.5 g of solid lipid Precirol® ATO 5 was melted in a controlled temperature water bath at 65°C. […] Regarding liquid lipids (oleic acid, Labrasol®, Labrafac™ PG, Lauroglycol™ 90, and Miglyol® 812 N), both drugs were dispersed in screw-capped tubes with the liquid compounds (0.5 ml each) and kept under mechanical stirring for 24 h at 25°C. […] An aliquot of the supernatant was diluted with the mobile phase, filtered through a 0.22-µm membrane, and analyzed. […]
Structures can show the parent of a compound that is named as a salt.
This section presents compounds with their documented solubility at 24 h values.
Number in mg/mL, nothing else.

{"Compound": "Fc1ccc([C@@H]2CCNC[C@H]2COc2ccc3c(c2)OCO3)cc1 [Paroxetine, Paroxetine hydrochloride]", "solubility at 24 h, mg/mL": 13.8}

Prompt: Which value of solubility at 24 h has been reported for CN(C)CCC[C@@]1(c2ccc(F)cc2)OCc2cc(C#N)ccc21 [Escitalopram, escitalopram oxalate] in the records?
Completion: 6.91
